From: patent US4428957A

Measured MTD at 336 h, listed per entry for reference.
- PROCEDURE_SUMMARY: Compatibility in the case of the sheep
- ASSAY_SETUP: in vivo, single dose into the rumen, 14 days observation, read-out: MTD (maximum tolerated dose)
Write it as a number; the unit mg/kg goes unstated.

MTD at 336 h in this record for COc1cc2nc(C(C)(C)C)sc2cc1N=C=S : 320

MTD at 336 h in this record for CC(C)(C)c1nc2ccc(N=C=S)cc2s1 [No. 2, reference compound] : 200

MTD at 336 h in this record for CC(C)c1nc2ccc(N=C=S)cc2s1 [No. 4, reference compound] : 200
